# Method: Kinetic solubility test in bio-relevant media and H2O
# Assay type: physicochemical
# Assay setup: thermodynamic from solid; FeSSIF, RT; read-out: solubility in FeSSIF

{"columns": ["Compound", "solubility / µg/mL"],
 "data": [
  ["C[C@]12CCCN1CC1=NNC(=O)c3cc(F)cc4[nH]c2c1c34 [Crystalline Sesqui-Hydrate of Compound 1]", 1000]
]}

* * *

Some compounds, each annotated with its measured solubility.
# Method: Kinetic solubility test in bio-relevant media and H2O
# Assay type: physicochemical
# Assay setup: thermodynamic from solid; FaSSIF, RT; read-out: solubility in FaSSIF

{"columns": ["Compound", "solubility"],
 "data": [
  ["C[C@]12CCCN1CC1=NNC(=O)c3cc(F)cc4[nH]c2c1c34 [Crystalline Sesqui-Hydrate of Compound 1]", "< 100 µg/mL"],
  ["C[C@]12CCCN1CC1=NNC(=O)c3cc(F)cc4[nH]c2c1c34.O=C(O)/C=C\\C(=O)O [Form B]", "~200 µg/mL"]
]}
